The measured values listed here are drawn from patent US9796753B2.

- Tested on: prostate DU-145
- experiment-notes: COMPARE screening (NCI human cancer cell line screen), cytotoxicity GI50
- Format: cell-based
endpoint-label: GI50 (µM)

# compound, endpoint-label, value-units, result-modifier, endpoint-value
records = [
    ("O=C1c2ccccc2-c2c1c1ccccc1c(=O)n2CCNCCn1c2c(c3ccccc3c1=O)C(=O)c1ccccc1-2 [Compound 12a]", "GI50", "µM", ">", 25.1),
    ("O=C(O)C(F)(F)F.O=C1c2ccccc2-c2c1c1ccccc1c(=O)n2CCCNCCn1c2c(c3ccccc3c1=O)C(=O)c1ccccc1-2 [Compound 14a]", "GI50", "µM", "=", 1.91),
    ("O=C1c2ccccc2-c2c1c1ccc([N+](=O)[O-])cc1c(=O)n2CCCN1CCOCC1", "GI50", "µM", "=", 0.085),
    ("COc1ccc2c(c1)C(=O)c1c-2n(CCCn2ccnc2)c(=O)c2cc([N+](=O)[O-])ccc12", "GI50", "µM", "<", 0.01),
    ("Cl.O=C1c2ccccc2-c2c1c1ccc([N+](=O)[O-])cc1c(=O)n2CCCNCCO", "GI50", "µM", ">", 100),
    ("COc1ccc2c(c1)C(=O)c1c-2n(CCCN(C)C)c(=O)c2cc([N+](=O)[O-])ccc12", "GI50", "µM", "<", 0.01),
    ("O=C1c2ccccc2-c2c1c1ccccc1c(=O)n2CCCn1ccnc1", "GI50", "µM", "=", 1.41),
]

* * *

Here the recorded GI50 is given for each entry.
- System: colon HCT-116
- experiment-notes: COMPARE screening (NCI human cancer cell line screen), cytotoxicity GI50
- Assay type: cell-based
endpoint-label: GI50

# compound, endpoint-value
measured = [
    ("COc1ccc2c(c1)C(=O)c1c-2n(CCCn2ccnc2)c(=O)c2cc([N+](=O)[O-])ccc12", "< 10 nM"),
    ("O=C1c2ccccc2-c2oc(=O)c3cc4c(cc3c21)OCO4", "> 100000 nM"),
    ("COc1cc2c3c(n(CCCN(C)C)c(=O)c2cc1OC)-c1ccccc1C3=O", "2450 nM"),
    ("O=C(O)C(F)(F)F.O=C(O)C(F)(F)F.O=C1c2ccccc2-c2c1c1ccccc1c(=O)n2CCCN1CCN(CCCn2c3c(c4ccccc4c2=O)C(=O)c2ccccc2-3)CC1 [Compound 14f]", "35500 nM"),
    ("COc1ccc2c(c1)C(=O)c1c-2n(CCCN2CCOCC2)c(=O)c2cc([N+](=O)[O-])ccc12", "< 10 nM"),
    ("COc1cc2c3c(n(CCCn4cncn4)c(=O)c2cc1OC)-c1cc2c(cc1C3=O)OCO2.Cl [Compound 5n, Hydrochloride]", "1910 nM"),
    ("Cl.NCCCn1c2c(c3ccccc3c1=O)C(=O)c1ccccc1-2", "180 nM"),
]

* * *

- Test system: renal SN12C
- experiment-notes: COMPARE screening (NCI human cancer cell line screen), cytotoxicity GI50
- Format: cell-based
- stated-conditions: renal SN12C; concentration corresponding to 50% growth inhibition; read-out: cytotoxicity (GI50 in μM) renal SN12C

# molecule, value-units, result-modifier, GI50
measured = [
    ("O=C(O)C(F)(F)F.O=C(O)C(F)(F)F.O=C1c2ccccc2-c2c1c1ccccc1c(=O)n2CCNCCCNCCn1c2c(c3ccccc3c1=O)C(=O)c1ccccc1-2 [Compound 14d]", "µM", "<", 0.005),
    ("O=C(O)C(F)(F)F.O=C(O)C(F)(F)F.O=C1c2ccccc2-c2c1c1ccccc1c(=O)n2CCCNCCCNCCCn1c2c(c3ccccc3c1=O)C(=O)c1ccccc1-2 [Compound 14g]", "µM", "<", 0.01),
    ("CC(C)(C)OC(=O)N(CCCn1c2c(c3ccccc3c1=O)C(=O)c1ccccc1-2)CCN(CCCn1c2c(c3ccccc3c1=O)C(=O)c1ccccc1-2)C(=O)OC(C)(C)C [Compound 13b]", "µM", "=", 39.8),
    ("COc1cc2c3c(n(CCNCCCNCCn4c5c(c6cc(OC)c(OC)cc6c4=O)C(=O)c4ccccc4-5)c(=O)c2cc1OC)-c1ccccc1C3=O.O=C(O)C(F)(F)F.O=C(O)C(F)(F)F [Compound 14k]", "µM", "=", 0.028),
    ("CC(C)(C)OC(=O)N(CCCCN(CCCn1c2c(c3ccccc3c1=O)C(=O)c1ccccc1-2)C(=O)OC(C)(C)C)CCCn1c2c(c3ccccc3c1=O)C(=O)c1ccccc1-2 [Compound 13d]", "µM", "=", 36.3),
]
